meta.source: patent US20060178374A1

The listing below reports pKi for compounds tested on HGFR (c-Met) (Homo sapiens).
Numbers only, as −log10 of the molar value.

Illustrative cases are given below, each with its answer.
CC(Oc1cc(-c2ccc(-c3ccno3)cc2)cnc1N)c1c(Cl)ccc(F)c1Cl (stereo not drawn) [Example 25]; 7.06
CC(Oc1cc(-c2ccc(C(=O)NC3CCNCC3)cc2)cnc1N)c1c(Cl)ccc(F)c1Cl (stereo not drawn) [Example 12]; 7.39
CC(Oc1cc(-c2ccc(C3(O)CCNCC3)nc2)cnc1N)c1c(Cl)ccc(F)c1Cl (stereo not drawn) [Example 30]; 7.66
C[C@@H](Oc1cc(-c2ccc(C(=O)N(C)CCCN(C)C)cc2)cnc1N)c1c(Cl)ccc(F)c1Cl [Example 128]; 8.00
CC(Oc1cc(-c2cnc3[nH]c(=O)oc3c2)cnc1N)c1c(Cl)ccc(F)c1Cl (stereo not drawn) [Example 107]; 7.57
COc1cc(C(=O)Nc2cnc(N)c(OC(C)c3c(Cl)ccc(F)c3Cl)c2)ccn1 (stereo not drawn) [Example 92]; 5.77

I have 4 compounds here; please give me pKi for each one.
1. CC(Oc1cc(-c2ccc(CC(=O)N3CC4C(N)C4C3)cc2)cnc1N)c1c(Cl)ccc(F)c1Cl (stereo not drawn) [Example 101]
2. COc1cc(-c2cnc(N)c(OC(C)c3c(Cl)ccc(F)c3Cl)c2)ccc1OCCO (stereo not drawn) [Example 108]
3. CC(Oc1cc(Br)cnc1N)c1c(C#N)ccc(N(C)C)c1Cl (stereo not drawn) [Example 50]
4. CC(Oc1cc(-c2cn(C3CCNCC3)cn2)cnc1N)c1c(Cl)ccc(F)c1Cl (stereo not drawn) [Example 77]

Out:
[7.41, 7.66, 5.74, 7.42]

---

Parameter pKi, tested on HGFR (c-Met) (Homo sapiens), listed per item.
Give bare numbers, as −log10 of the molar value.

COc1cc(-c2cnc(N)c(OC(C)c3c(Cl)ccc(F)c3Cl)c2)ccc1O (centres unmarked) [Example 140]; 7.41
CC(Oc1cc(-c2ccc(C(=O)N3CCC(N4CCCC4)CC3)cc2)cnc1N)c1c(Cl)ccc(Cl)c1F (centres unmarked) [Example 96]; 6.66
CC(Oc1cc(-c2ccc(O)cc2)cnc1N)c1c(Cl)ccc(F)c1Cl (centres unmarked) [Example 136]; 7.14
CCNCCNC(=O)c1ccc(-c2cnc(N)c(OC(C)c3c(Cl)ccc(F)c3Cl)c2)cc1 (centres unmarked) [Example 18]; 7.44
CC(Oc1cc(-c2ccc(OC3CCNCC3)nc2)cnc1N)c1c(Cl)ccc(F)c1Cl (centres unmarked) [Example 71]; 7.57
CC(Oc1cc(-c2ccc(N3CCN(C)CC3)nc2)cnc1N)c1c(Cl)ccc(F)c1Cl (centres unmarked) [Example 63]; 7.45
CC(Oc1cc(-c2ccc(C(=O)NCC3CCNCC3)cc2)cnc1N)c1c(Cl)ccc(F)c1Cl (centres unmarked) [Example 13]; 7.32

Here is the next item to consider.
Record summary for CC(Oc1cc(-c2cccc(NS(C)(=O)=O)c2)cnc1N)c1c(Cl)ccc(F)c1Cl (centres unmarked) [Example 141] : reported pKi = 7.27

---

- SYSTEM_UNDER_TEST: HGFR (c-Met) (Homo sapiens, UniProt P08581)
- Sequence (P08581 974-1390): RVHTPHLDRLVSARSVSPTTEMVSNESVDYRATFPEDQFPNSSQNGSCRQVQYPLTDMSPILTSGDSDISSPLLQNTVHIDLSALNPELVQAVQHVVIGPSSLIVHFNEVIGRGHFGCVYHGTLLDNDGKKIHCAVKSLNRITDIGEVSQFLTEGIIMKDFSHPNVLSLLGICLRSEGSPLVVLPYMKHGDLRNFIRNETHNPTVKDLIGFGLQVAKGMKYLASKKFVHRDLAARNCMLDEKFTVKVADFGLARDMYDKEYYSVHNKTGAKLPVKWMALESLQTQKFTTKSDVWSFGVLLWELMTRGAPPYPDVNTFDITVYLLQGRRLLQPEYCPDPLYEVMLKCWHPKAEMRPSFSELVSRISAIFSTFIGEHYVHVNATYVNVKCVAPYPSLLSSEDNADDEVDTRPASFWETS
MEASURE: Ki (nM)
Give bare numbers, in nM.

Some solved cases for reference:
CC(Oc1cc(-c2ccc(OCCC3CCNCC3)nc2)cnc1N)c1c(Cl)ccc(F)c1Cl (centres unmarked); 47
CC(Oc1cc(-c2ccc(C3CCNCC3)cc2)cnc1N)c1c(Cl)ccc(F)c1Cl (centres unmarked); 25
CC(Oc1cc(-c2cccc(CNC(=O)CCN)c2)cnc1N)c1c(Cl)ccc(F)c1Cl (centres unmarked); 49
CC(Oc1cc(-c2ccc(CO)cc2)cnc1N)c1c(Cl)ccc(F)c1Cl (centres unmarked); 71
CCS(=O)(=O)c1ccc(-c2cnc(N)c(OC(C)c3c(Cl)ccc(F)c3Cl)c2)cc1 (centres unmarked); 53

# batch size: 6; output Ki per entry
1. CC(Oc1cc(-c2ccc(CO)nc2)cnc1N)c1c(Cl)ccc(F)c1Cl (centres unmarked)
2. COc1ncc(-c2cnc(N)c(OC(C)c3c(Cl)ccc(OC)c3Cl)c2)cn1 (centres unmarked)
3. CC(Oc1cc(-c2ccc(C(=O)N3CCN(C4CCN(C)CC4)CC3)cc2)cnc1N)c1c(Cl)ccc(F)c1Cl (centres unmarked)
4. CC(Oc1cc(N2CCCC2=O)cnc1N)c1c(Cl)ccc(F)c1Cl (centres unmarked)
5. CC(Oc1cc(-c2ccc(N3CCC(O)CC3)nc2)cnc1N)c1c(Cl)ccc(F)c1Cl (centres unmarked)
6. CC(Oc1cc(-c2ccc(N3CCN(CCO)CC3)nc2)cnc1N)c1c(Cl)ccc(F)c1Cl (centres unmarked)

Out:
69
160
26
910
19.3
32.7

// each molecule listed below needs its Ki
1. CC(Oc1cc(C(N)=O)cnc1N)c1c(Cl)ccc(F)c1Cl (centres unmarked)
2. COC(=O)c1cn(-c2cnc(N)c(OC(C)c3c(Cl)ccc(F)c3Cl)c2)cn1 (centres unmarked)
3. CC(Oc1cc(-c2ccc(C(=O)N(C)C)cc2)cnc1N)c1c(Cl)ccc(F)c1Cl (centres unmarked)
4. CC(Oc1cc(-c2cccc(C3(C#N)CCNCC3)c2)cnc1N)c1c(Cl)ccc(F)c1Cl (centres unmarked)
5. CC(Oc1cc(-c2ccc(NC3CCNCC3)nc2)cnc1N)c1c(Cl)ccc(F)c1Cl (centres unmarked)
6. CC(Oc1cc(-c2ccc3c(ccn3C)c2)cnc1N)c1c(Cl)ccc(F)c1Cl (centres unmarked)

Out:
1. 1000
2. 1810
3. 37
4. 6
5. 22
6. 153
